System: Human immunodeficiency virus 1
assay protocol: Inhibitory activity against 181C strain of HIV-I in MT-4 cell was determined
Type: functional, organism-based
protocol conditions: Human immunodeficiency virus 1, MT4
Definition: the class of an entry is the range in low group: < 70 nM; middle group: ≥ 70 nM and < 2000 nM; high group: ≥ 2000 nM that contains its IC50.

// below: answered compounds
In plain terms, what class is `N#Cc1ccc(Nc2nc(N)nc(Cc3ccccc3)n2)cc1` ?
high group

Where would `N#Cc1ccc(Nc2nc(Cc3c(Cl)cccc3Cl)nc(NN)n2)cc1` land among the classes by reported IC50?
high group

Which category fits this record: `Cc1cc(C#N)cc(C)c1Nc1ncnc(Nc2ccc(C#N)cc2)n1`
low group

# classify by IC50 band: `Cc1cc(C)c(Oc2ncnc(Nc3ccc(C#N)cc3)n2)c(C)c1`
low group

Continuing:
Looking at `CN(C)/C=N\c1nc(Cc2c(Cl)cccc2Cl)nc(Nc2ccc(C#N)cc2)n1` , which class would you pick?
middle group

Class? Entry: `COc1cccc(OC)c1Oc1nc(N)nc(Nc2ccc(C#N)cc2)n1`
middle group

Which class does `Cc1cc(Br)c(Oc2ncnc(Nc3ccc(C#N)cc3)n2)c(Br)c1` fall in?
low group

Quick check: band for `N#Cc1ccc(Nc2nc(N)nc(Oc3c(Cl)cc(F)cc3Cl)n2)cc1`
middle group

Form: Item = `CCOC(=O)Nc1nc(Cc2c(Cl)cccc2Cl)nc(Nc2ccc(C#N)cc2)n1` ; Class = ?
middle group

Class for `N#Cc1ccc(Nc2nc(O)nc(Cc3c(Cl)cccc3Cl)n2)cc1` ?
high group

Into which category would you place `CN(C)CCOc1nc(Cc2c(Cl)cccc2Cl)nc(Nc2ccc(C#N)cc2)n1` ?
middle group

Please classify: `N#Cc1ccc(Nc2nc(N)nc(Cc3ccccc3Cl)n2)cc1`
high group

----------
Tested on: Human immunodeficiency virus 1
assay protocol: Inhibitory activity against 103N strain of HIV-I in MT-4 cell was determined
Format: functional, organism-based
protocol conditions: Human immunodeficiency virus 1, MT4
In this section we review reported pIC50 values for a set of compounds.
Recall that pIC50 is obtained by taking minus log10 of the concentration measured in molar.

Example entries and their recorded answers appear below.
Lab note: need pIC50 with Human immunodeficiency virus 1 for entry `N#Cc1ccc(Nc2nc(N)nc(Oc3c(Cl)cc(F)cc3Cl)n2)cc1` , please look it up.
7.19

Requested read-out pIC50, target or system Human immunodeficiency virus 1, entry `Cc1ccc(C)c(Cc2nc(N)nc(Nc3ccc(C#N)cc3)n2)c1`
6.56

// lookup pIC50 | system=Human immunodeficiency virus 1 | key= `N#Cc1ccc(Nc2nc(N)nc(Cc3ccccc3)n2)cc1`
5.07

Query for Human immunodeficiency virus 1: what pIC50 does the record show for `CC(=O)Nc1nc(Cc2c(Cl)cccc2Cl)nc(Nc2ccc(C#N)cc2)n1` ?
7.40

Under Human immunodeficiency virus 1: pIC50 value of `CC(=N)Nc1nc(Cc2c(Cl)cccc2Cl)nc(Nc2ccc(C#N)cc2)n1` ?
7.40

# returns recorded pIC50 (system: Human immunodeficiency virus 1) for C[S+]([O-])c1nc(Cc2c(Cl)cccc2Cl)nc(Nc2ccc(C#N)cc2)n1 (configuration not stated)
4.81

API: value(readout= pIC50, system= Human immunodeficiency virus 1, query= `CN(C)CCNc1nc(Cc2c(Cl)cccc2Cl)nc(Nc2ccc(C#N)cc2)n1` )
7.68

Item: `Cc1cc(C)cc(Cc2nc(N)nc(Nc3ccc(C#N)cc3)n2)c1` Test system: Human immunodeficiency virus 1 Read-out: pIC50 Value: ?
5.29

Find the measured pIC50: item `Cc1cc(Br)cc(C)c1Nc1ncnc(Nc2ccc(C#N)cc2)n1` , target or system Human immunodeficiency virus 1.
8.22

Item `Cc1cc(C#N)cc(C)c1Nc1ncnc(Nc2ccc(C#N)cc2)n1` with Human immunodeficiency virus 1 - pIC50?
8.10

We now examine a further compound.
What is its pIC50 for Human immunodeficiency virus 1? Entry: `CN(C)/C=N\c1nc(Cc2c(Cl)cccc2Cl)nc(Nc2ccc(C#N)cc2)n1`
7.80
